# protocolDescription: Half life in Beagle dog at 1 mg/kg, iv
# Type: ADME, organism-based, Canis lupus familiaris
# conditionInfo: in vivo
reportedEndpoint: half-life (h)

# smi, reportedEndpoint, experimentalValue
rows = [
    ("Nc1nccn2c([C@@H]3CC[C@H]4CCC(=O)N4C3)nc(-c3ccc(C(=O)Nc4cc(C(F)(F)F)ccn4)cc3)c12", "half-life", 3.6),
    ("COc1cc(C(=O)Nc2cc(C(F)(F)F)ccn2)ccc1-c1nc([C@@H]2CC[C@H]3CCC(=O)N3C2)n2ccnc(N)c12", "half-life", 3.4),
]

----------
# protocolDescription: Volume of distribution at steady state in Wistar Han rat at 2 mg/kg, iv
# Format: ADME, organism-based
# conditionInfo: in vivo, read-out: Vdss
reportedEndpoint: Vd (L/kg)

Completed entries (count: 3):
# smi, resultUnit, Vd
rows = [
    ("CC1(C)OC(=O)N2C[C@H](c3nc(-c4ccc(C(=O)Nc5cc(C(F)(F)F)ccn5)cc4)c4c(N)nccn34)CC[C@H]21", "L/kg", 5.6),
    ("Nc1nccn2c([C@@H]3CC[C@H]4CCC(=O)N4C3)nc(-c3ccc(C(=O)Nc4cc(C(F)(F)F)ccn4)cc3OC3CC3)c12", "L/kg", 4.2),
    ("Nc1nccn2c([C@@H]3CC[C@H]4COC(=O)N4C3)nc(-c3ccc(C(=O)Nc4cc(C(F)(F)F)ccn4)cc3)c12", "L/kg", 1.2),
]

P. Nc1nccn2c([C@@H]3CC[C@H]4CCC(=O)N4C3)nc(-c3ccc(C(=O)Nc4cc(C(F)(F)F)ccn4)cc3)c12
Q. COc1cc(C(=O)Nc2cc(C(F)(F)F)ccn2)ccc1-c1nc([C@@H]2CC[C@H]3CCC(=O)N3C2)n2ccnc(N)c12
Could you point out whether the larger Vd belongs to P or to Q ? Kindly state the label of the option you pick.
Q

----------
pIC50: −log10 of the molar value.
Parameter pIC50, tested on Proto-oncogene tyrosine-protein kinase Src (Homo sapiens, UniProt P12931), listed per item.
Sequence (P12931 2-536 limits assumed): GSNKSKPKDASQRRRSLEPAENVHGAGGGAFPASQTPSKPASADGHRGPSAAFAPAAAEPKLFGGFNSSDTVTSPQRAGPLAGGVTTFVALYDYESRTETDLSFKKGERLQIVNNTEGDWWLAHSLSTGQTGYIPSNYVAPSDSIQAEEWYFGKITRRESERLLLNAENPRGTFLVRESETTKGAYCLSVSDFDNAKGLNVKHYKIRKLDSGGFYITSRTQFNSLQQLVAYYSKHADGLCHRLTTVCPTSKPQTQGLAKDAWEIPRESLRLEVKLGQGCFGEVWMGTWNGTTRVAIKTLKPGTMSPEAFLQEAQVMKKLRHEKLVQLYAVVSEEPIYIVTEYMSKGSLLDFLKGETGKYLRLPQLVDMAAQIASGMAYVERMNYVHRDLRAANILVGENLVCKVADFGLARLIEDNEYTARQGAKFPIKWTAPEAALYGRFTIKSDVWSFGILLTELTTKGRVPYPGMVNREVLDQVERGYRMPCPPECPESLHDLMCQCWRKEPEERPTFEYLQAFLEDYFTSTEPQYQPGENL
reportedEndpoint: pIC50

Completed entries (count: 2):
# smi, pIC50
records = [
    ("CC1(C)OC(=O)N2C[C@H](c3nc(-c4ccc(C(=O)Nc5cc(C(F)(F)F)ccn5)cc4)c4c(N)nccn34)CC[C@H]21", 7.16),
    ("Nc1nccn2c([C@@H]3CC[C@H]4COC(=O)N4C3)nc(-c3ccc(C(=O)Nc4cc(C(F)(F)F)ccn4)cc3)c12", 7.04),
]

P. COc1cc(C(=O)Nc2cc(C(F)(F)F)ccn2)ccc1-c1nc([C@@H]2CC[C@H]3CCC(=O)N3C2)n2ccnc(N)c12
Q. Nc1nccn2c([C@@H]3CC[C@H]4CCC(=O)N4C3)nc(-c3ccc(C(=O)Nc4cc(C(F)(F)F)ccn4)cc3)c12
Could you point out whether the larger pIC50 belongs to P or to Q ? Kindly state the label of the option you pick.
Q
(Q: 7.48, P: 7.15)

----------
# protocolDescription: Tmax in Wistar Han rat at 5 mg/kg, po
# Assay type: ADME, organism-based
# conditionInfo: in vivo
reportedEndpoint: Tmax (h)

# smi, experimentalValue
rows = [
    ("Nc1nccn2c([C@@H]3CC[C@H]4COC(=O)N4C3)nc(-c3ccc(C(=O)Nc4cc(C(F)(F)F)ccn4)cc3)c12", 0.25),
    ("CC1(C)OC(=O)N2C[C@H](c3nc(-c4ccc(C(=O)Nc5cc(C(F)(F)F)ccn5)cc4)c4c(N)nccn34)CC[C@H]21", 2.5),
]

a. Nc1nccn2c([C@@H]3CC[C@H]4CCC(=O)N4C3)nc(-c3ccc(C(=O)Nc4cc(C(F)(F)F)ccn4)cc3OC3CC3)c12
b. COc1cc(C(=O)Nc2cc(C(F)(F)F)ccn2)ccc1-c1nc([C@@H]2CC[C@H]3CCC(=O)N3C2)n2ccnc(N)c12
c. Nc1nccn2c([C@@H]3CC[C@H]4CCC(=O)N4C3)nc(-c3ccc(C(=O)Nc4cc(C(F)(F)F)ccn4)cc3)c12
Order the records so the highest Tmax appears first and the lowest last. Arrange the labels as the request states and list them.
a, b, c
